The reported numbers originate from patent US9409893B2.

Recorded measurements of inhibition at 3 µM, one per entry
Biological target: hERG potassium channel (Homo sapiens)
Assay: Whole cell patch clamp of cloned hERG potassium channels expressed in HEK293 cells
Type: cell-based
Settings: human, HEK293 cells stably expressing hERG, pH 7.4; 3 μM, HEK293/hERG, room temperature; read-out: Mean percentage of hERG current inhibited
Experimental: For in vitro testing, the functional hERG assay using conventional patch clamp electrophysiology is considered the gold standard for assessment of drug interactions with the hERG potassium channel (Yao et al., Br. J. Pharmacol. 2008, 154, 1446-1456). […] Onset and steady state inhibition of hERG current was measured using a pulse pattern with fixed amplitudes (conditioning prepulse: +20 mV for 2 s; test pulse: −50 mV for 2 s) repeated at 10 s intervals, from a holding potential of −80 mV. […]
measured_endpoint: inhibition at 3 µM (%)

molecule | uom | result
CC(C)(C)NCc1cc(C(C)(C)C)cc(-c2cnc(C(F)(F)F)c(F)c2)c1O.Cl [Example 34, hydrochloride] | % | 11.3
CC(C)(C)NCc1cc(C(C)(C)C)cc(-c2cnc(C(F)(F)F)nc2)c1O.Cl [Example 33, hydrochloride] | % | 4.1
CC(C)(C)NCc1cc(C(C)(C)C)cc(-c2ccc(Cl)cc2)c1O [WR-194,965, reference compound] | % | 80.3
CC(C)(C)NCc1cc(C(C)(C)C)cc(-c2ccc(C(F)(F)F)nc2)c1O.Cl [Example 1, hydrochloride] | % | 18.4

* * *

Target: hERG potassium channel (Homo sapiens, UniProt Q12809)
Sequence (Q12809 whole entry): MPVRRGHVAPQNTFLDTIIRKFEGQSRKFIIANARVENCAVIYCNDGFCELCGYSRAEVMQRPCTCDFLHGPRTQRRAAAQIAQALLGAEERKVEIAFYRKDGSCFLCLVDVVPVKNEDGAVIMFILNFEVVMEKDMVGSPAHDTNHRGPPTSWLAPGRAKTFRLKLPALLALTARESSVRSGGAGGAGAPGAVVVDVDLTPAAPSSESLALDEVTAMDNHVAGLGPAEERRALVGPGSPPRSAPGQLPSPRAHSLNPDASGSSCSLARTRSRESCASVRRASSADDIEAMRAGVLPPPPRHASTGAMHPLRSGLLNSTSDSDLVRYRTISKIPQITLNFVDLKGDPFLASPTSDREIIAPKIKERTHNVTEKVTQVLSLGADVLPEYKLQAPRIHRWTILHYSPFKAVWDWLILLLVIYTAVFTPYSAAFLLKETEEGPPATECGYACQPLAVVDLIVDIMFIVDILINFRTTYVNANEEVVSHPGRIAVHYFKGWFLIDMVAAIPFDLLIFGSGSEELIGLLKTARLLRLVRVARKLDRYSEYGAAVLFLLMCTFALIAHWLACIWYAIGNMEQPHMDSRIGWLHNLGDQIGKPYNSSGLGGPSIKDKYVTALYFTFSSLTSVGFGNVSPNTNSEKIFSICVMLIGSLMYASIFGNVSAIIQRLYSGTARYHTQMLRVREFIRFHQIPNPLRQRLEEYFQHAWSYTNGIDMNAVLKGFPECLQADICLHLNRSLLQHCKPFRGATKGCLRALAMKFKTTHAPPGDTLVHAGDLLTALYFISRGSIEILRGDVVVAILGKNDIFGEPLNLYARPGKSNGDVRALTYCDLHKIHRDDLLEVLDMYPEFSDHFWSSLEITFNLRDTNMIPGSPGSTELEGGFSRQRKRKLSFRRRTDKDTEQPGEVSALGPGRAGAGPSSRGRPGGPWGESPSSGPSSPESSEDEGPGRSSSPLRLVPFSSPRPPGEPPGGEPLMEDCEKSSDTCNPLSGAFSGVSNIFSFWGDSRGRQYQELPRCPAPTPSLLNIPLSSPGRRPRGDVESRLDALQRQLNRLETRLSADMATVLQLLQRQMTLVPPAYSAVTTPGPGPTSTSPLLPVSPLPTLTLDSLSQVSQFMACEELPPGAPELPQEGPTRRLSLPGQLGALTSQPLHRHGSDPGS
Test: Whole cell patch clamp of cloned hERG potassium channels expressed in HEK293 cells
Conditions: HEK293/hERG, patch clamp; read-out: IC50 for the inhibitory effect on hERG potassium current
pIC50: −log10 of the molar value.

compound | bound_operator | pIC50
CC(C)(C)NCc1cc(C(C)(C)C)cc(-c2cnc(C(F)(F)F)nc2)c1O.Cl [Example 33, hydrochloride] | < | 5.00
CC(C)(C)NCc1cc(C(C)(C)C)cc(-c2cnc(C(F)(F)F)c(F)c2)c1O.Cl [Example 34, hydrochloride] | < | 5.00
CC(C)(C)NCc1cc(C(C)(C)C)cc(-c2ccc(C(F)(F)F)nc2)c1O.Cl [Example 1, hydrochloride] | = | 5.01
CC(C)(C)NCc1cc(C(C)(C)C)cc(-c2ccc(Cl)cc2)c1O [WR-194,965, reference compound] | = | 5.96

* * *

Biological target: UniProtKB Q12809
Assay: Whole cell patch clamp of cloned hERG potassium channels expressed in HEK293 cells
Assay type: cell-based
Conditions: human, HEK293 cells stably expressing hERG, pH 7.4; 100 μM, HEK293/hERG, room temperature; read-out: Mean percentage of hERG current inhibited
measured_endpoint: inhibition at 100 µM (%)

compound | result
CC(C)(C)NCc1cc(C(C)(C)C)cc(-c2ccc(C(F)(F)F)nc2)c1O.Cl [Example 1, hydrochloride] | 98.2

* * *

Target: hERG potassium channel (Homo sapiens)
Assay: Whole cell patch clamp of cloned hERG potassium channels expressed in HEK293 cells
Assay type: cell-based
Conditions: human, HEK293 cells stably expressing hERG, pH 7.4; 30 μM, HEK293/hERG, room temperature; read-out: Mean percentage of hERG current inhibited

compound | inhibition at 30 µM (%)
CC(C)(C)NCc1cc(C(C)(C)C)cc(-c2cnc(C(F)(F)F)nc2)c1O.Cl [Example 33, hydrochloride] | 24.3
CC(C)(C)NCc1cc(C(C)(C)C)cc(-c2ccc(C(F)(F)F)nc2)c1O.Cl [Example 1, hydrochloride] | 84
